Test system: Raw264.7 mouse macrophage cell line
Assay: IL-6 and TNF-alpha secretion in Raw264.7 cells (ELISA)
Assay type: cell-based
Conditions: Mus musculus, RAW264.7; 24 hours treatment, 7 doses; read-out: EC 50 IL 6
readout label: pEC50
Units for pEC50: none; it is -log10 of a concentration expressed in mol/L.

The measured pEC50 associated with CC(C)Cn1cnc2c(N)nc3ccccc3c21 [Imiquimod, reference compound] reads 5.70

====

Tested on: PBMCs
Assay: IL-6 and TNF-alpha secretion in PBMCs from three donors (ELISA)
Format: cell-based, human
Conditions: Homo sapiens, PBMC, D2, first experiments on three donors; read-out: EC50 values, IL-6 secretion
readout label: pEC50
When answering, recall that pEC50 equals minus log10 of the concentration in mol/L, and write that number alone.

For CC(C)Cn1cnc2c(N)nc3ccccc3c21 [Imiquimod, reference compound] the molecule record lists pEC50 as 5.70
